Recorded values, source ChEMBL document CHEMBL1132355.

# protocol summary: Inhibition of platelet aggregation (rabbit platelet-rich plasma),induced by arachidonic acid, (100% inhibitory response)
# study conditions: Oryctolagus cuniculus
The threshold is inclusive: EC100 of exactly 1 µg/mL counts as 1.0; values below receive 0.0.

**Q:** Is it the case that NC(=O)CN1c2nc(-c3ccccc3)c(-c3ccccc3)nc2C(N)=NS1(=O)=O has EC100 reaching or exceeding 1 µg/mL?
**A:** 1.0

**Q:** Is it the case that CCOC(=O)CN1c2nc(-c3ccccc3)cnc2C(N)=NS1(=O)=O has EC100 reaching or exceeding 1 µg/mL?
**A:** 1.0

**Q:** Is it the case that CCN1c2nc(-c3cccs3)c(-c3cccs3)nc2C(N)=NS1(=O)=O has EC100 reaching or exceeding 1 µg/mL?
**A:** 1.0

**Q:** Is it the case that CN1c2ncc(-c3ccccc3)nc2C(N)=NS1(=O)=O has EC100 reaching or exceeding 1 µg/mL?
**A:** 0.0

**Q:** Is it the case that CCOc1nc2c(nc1-c1ccc(Cl)cc1)C(N)=NS(=O)(=O)N2CC has EC100 reaching or exceeding 1 µg/mL?
**A:** 1.0

**Q:** Is it the case that COc1ccc(-c2nc3c(nc2-c2ccc(OC)cc2)N(C)S(=O)(=O)N=C3N)cc1 has EC100 reaching or exceeding 1 µg/mL?
**A:** 0.0

**Q:** Is it the case that COc1cccc(-c2nc3c(nc2-c2cccc(OC)c2)N(C)S(=O)(=O)N=C3N)c1 has EC100 reaching or exceeding 1 µg/mL?
**A:** 1.0

**Q:** Is it the case that CN1c2nc(-c3ccccn3)c(-c3ccccn3)nc2C(N)=NS1(=O)=O has EC100 reaching or exceeding 1 µg/mL?
**A:** 1.0

**Q:** Is it the case that NC1=NS(=O)(=O)N(Cc2ccccc2)c2nc(-c3ccccc3)c(-c3ccccc3)nc21 has EC100 reaching or exceeding 1 µg/mL?
**A:** 1.0

**Q:** Is it the case that CN1c2ncc(-c3ccccc3F)nc2C(N)=NS1(=O)=O has EC100 reaching or exceeding 1 µg/mL?
**A:** 0.0

**Q:** Is it the case that CCOC(=O)CN1c2nc(-c3ccccc3)c(-c3ccccc3)nc2C(N)=NS1(=O)=O has EC100 reaching or exceeding 1 µg/mL?
**A:** 0.0

**Q:** Is it the case that CCN1c2nc(-c3ccc(Cl)cc3)c(-c3ccc(Cl)cc3)nc2C(N)=NS1(=O)=O has EC100 reaching or exceeding 1 µg/mL?
**A:** 1.0

**Q:** Is it the case that CCN1c2nc(-c3ccccc3)c(-c3ccccc3)nc2C(N)=NS1(=O)=O has EC100 reaching or exceeding 1 µg/mL?
**A:** 0.0

**Q:** Is it the case that CCN1c2nc(-c3ccccc3)cnc2C(N)=NS1(=O)=O has EC100 reaching or exceeding 1 µg/mL?
**A:** 1.0

**Q:** Is it the case that CCN1c2nc(-c3ccccc3)c(Cl)nc2C(N)=NS1(=O)=O has EC100 reaching or exceeding 1 µg/mL?
**A:** 1.0

**Q:** Is it the case that COc1nc2c(nc1-c1ccccc1)C(N)=NS(=O)(=O)N2C has EC100 reaching or exceeding 1 µg/mL?
**A:** 0.0

**Q:** Is it the case that Cc1ccc(-c2cnc3c(n2)N(C)S(=O)(=O)N=C3N)cc1 has EC100 reaching or exceeding 1 µg/mL?
**A:** 1.0

**Q:** Is it the case that CN1c2nc(-c3ccc(F)cc3)c(-c3ccc(F)cc3)nc2C(N)=NS1(=O)=O has EC100 reaching or exceeding 1 µg/mL?
**A:** 0.0

**Q:** Is it the case that CCOC(=O)CN1c2nc(-c3ccccc3)c(Br)nc2C(N)=NS1(=O)=O has EC100 reaching or exceeding 1 µg/mL?
**A:** 1.0

**Q:** Is it the case that CCOc1nc2c(nc1-c1ccccc1)C(N)=NS(=O)(=O)N2C has EC100 reaching or exceeding 1 µg/mL?
**A:** 0.0
